# Target under test: Nitric oxide synthase, inducible (Mus musculus)
# Method summary: Compound was tested for the percent inhibition of nitric oxide synthase (i) using [14C]L-citrulline as radioligand.
# Stated conditions: concentration not given here
Can you tell me inhibition for the items I'm about to list?
Express the result in % but write the number alone.

Form: compound = `CS/C(S)=N/CCC[C@H](N)C(=O)O` ; inhibition = 54

Form: compound = `CSC(=NCCC[C@H](N)C(=O)O)SC` ; inhibition = 56

---

# Target under test: Nitric oxide synthase 1 (Rattus norvegicus)
# Sequence (P29476 whole entry): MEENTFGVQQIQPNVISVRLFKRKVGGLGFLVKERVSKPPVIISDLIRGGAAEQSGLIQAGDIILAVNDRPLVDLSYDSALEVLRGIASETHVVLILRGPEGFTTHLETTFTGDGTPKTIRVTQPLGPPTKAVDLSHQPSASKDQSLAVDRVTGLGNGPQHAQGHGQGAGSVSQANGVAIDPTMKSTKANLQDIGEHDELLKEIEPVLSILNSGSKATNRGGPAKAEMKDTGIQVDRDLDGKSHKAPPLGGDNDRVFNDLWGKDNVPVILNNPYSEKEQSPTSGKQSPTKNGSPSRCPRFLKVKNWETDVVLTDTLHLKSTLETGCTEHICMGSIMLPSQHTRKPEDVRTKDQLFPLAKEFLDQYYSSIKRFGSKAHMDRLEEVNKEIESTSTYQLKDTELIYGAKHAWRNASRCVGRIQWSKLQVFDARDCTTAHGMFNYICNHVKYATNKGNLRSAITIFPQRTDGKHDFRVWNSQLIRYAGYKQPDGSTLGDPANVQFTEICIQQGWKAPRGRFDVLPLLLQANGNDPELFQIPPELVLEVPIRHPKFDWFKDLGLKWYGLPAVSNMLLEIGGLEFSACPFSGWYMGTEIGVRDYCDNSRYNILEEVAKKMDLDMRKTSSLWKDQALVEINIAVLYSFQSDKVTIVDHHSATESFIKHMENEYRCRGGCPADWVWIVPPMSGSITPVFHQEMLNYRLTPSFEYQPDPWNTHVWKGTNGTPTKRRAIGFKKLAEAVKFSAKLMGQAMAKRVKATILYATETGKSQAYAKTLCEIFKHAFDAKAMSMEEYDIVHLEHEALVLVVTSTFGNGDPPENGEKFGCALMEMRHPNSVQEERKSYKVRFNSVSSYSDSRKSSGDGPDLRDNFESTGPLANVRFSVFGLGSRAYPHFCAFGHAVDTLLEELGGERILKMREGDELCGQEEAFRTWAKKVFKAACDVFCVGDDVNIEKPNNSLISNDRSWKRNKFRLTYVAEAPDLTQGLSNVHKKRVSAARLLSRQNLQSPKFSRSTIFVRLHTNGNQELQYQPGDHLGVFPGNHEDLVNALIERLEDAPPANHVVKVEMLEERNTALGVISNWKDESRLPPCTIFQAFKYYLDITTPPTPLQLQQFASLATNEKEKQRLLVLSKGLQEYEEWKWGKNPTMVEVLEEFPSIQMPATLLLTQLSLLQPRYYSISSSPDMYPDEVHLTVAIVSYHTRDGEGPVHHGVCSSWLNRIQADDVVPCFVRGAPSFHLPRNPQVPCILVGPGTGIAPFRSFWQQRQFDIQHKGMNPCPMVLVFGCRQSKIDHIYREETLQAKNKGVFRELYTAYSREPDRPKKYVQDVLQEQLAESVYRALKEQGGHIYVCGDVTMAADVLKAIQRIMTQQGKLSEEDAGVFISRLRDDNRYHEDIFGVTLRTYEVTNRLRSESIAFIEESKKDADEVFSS
Measured metric: Ki (nM)
Express the result in nM but write the number alone.

Form: compound = `N/C(S)=N/CCC[C@H](N)C(=O)O` ; Ki = 60
